Attribute: pIC50
molecular target: TNFα / TNFα receptor (TNFα R1/Fc) (Homo sapiens); construct: purchased R&D Systems; experiment: Inhibition of binding of TNFα to the TNFα receptor (plate ELISA competition); settings: Activity (IC50, inhibition of TNFα binding to TNFα R1/Fc), Table 2
Sequence (P01375 77-233 limits assumed, species assumed): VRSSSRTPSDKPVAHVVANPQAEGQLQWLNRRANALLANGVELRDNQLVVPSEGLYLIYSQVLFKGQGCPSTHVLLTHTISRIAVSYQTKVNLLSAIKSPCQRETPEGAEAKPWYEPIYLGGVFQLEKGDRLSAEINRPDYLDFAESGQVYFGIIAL
pIC50: −log10 of the molar value.
Readout Name: pIC50

* C[C@@H](C(=O)O)N(C)C(=O)[C@@H]1Cc2ccc(cc2)OCC(=O)N[C@@H](Cc2cccs2)C(=O)N[C@H](Cc2ccc(-c3ccccc3)cc2)C(=O)N[C@@H](CCc2ccccc2)C(=O)N1 | > 5.00
* O=C1COc2ccc(cc2)C[C@@H](C(=O)NCc2nnn[nH]2)NC(=O)[C@H](Cc2ccccc2)NC(=O)[C@@H](Cc2ccc(-c3ccccc3)cc2)NC(=O)[C@H](Cc2cccs2)N1 | > 5.00
* O=C1COc2ccc(cc2)C[C@H](C(=O)N[C@H](CCc2ccccc2)C(=O)O)NC(=O)[C@H](Cc2c[nH]c3ccccc23)NC(=O)[C@@H](Cc2ccc(-c3ccccc3)cc2)NC(=O)[C@H](Cc2ccncc2)N1 | 4.52 to 5.00
* O=C1COc2ccc(cc2)C[C@@H](C(=O)N[C@@H](Cc2ccccc2)C(=O)O)NC(=O)[C@H](CCc2ccccc2)NC(=O)[C@@H](Cc2ccc(-c3ccccc3)cc2)NC(=O)[C@H](Cc2cccs2)N1 | > 5.00
* O=C1COc2ccc(cc2)C[C@@H](C(=O)N[C@@H](Cc2ccc(O)cc2)C(=O)O)NC(=O)[C@@H](CCc2ccccc2)NC(=O)[C@H](Cc2ccc(-c3ccccc3)cc2)NC(=O)[C@@H](Cc2cccs2)N1 | > 5.00
* C[C@H](C(=O)O)N(C)C(=O)[C@@H]1Cc2ccc(cc2)OCC(=O)N[C@@H](Cc2cccs2)C(=O)N[C@H](Cc2ccc(-c3ccccc3)cc2)C(=O)N[C@@H](CCc2ccccc2)C(=O)N1 | > 5.00
* O=C1COc2ccc(cc2)C[C@@H](C(=O)N[C@@H](CO)C(=O)O)NC(=O)[C@H](CCc2ccccc2)NC(=O)[C@@H](Cc2ccc(-c3ccccc3)cc2)NC(=O)[C@H](Cc2ccncc2)N1 | > 5.00
* O=C1COc2ccc(cc2)C[C@@H](C(=O)N[C@@H](Cc2ccccc2)C(=O)O)NC(=O)[C@@H](CCc2ccccc2)NC(=O)[C@H](Cc2ccc(-c3ccccc3)cc2)NC(=O)[C@@H](Cc2cccs2)N1 | > 5.00
* O=C1COc2ccc(cc2)CC(C(=O)O)NC(=O)C(Cc2ccccc2)NC(=O)C(Cc2ccc([N+](=O)[O-])cc2)NC(=O)C(Cc2cccs2)N1 (stereo not drawn) | < 4.00
* O=C1COc2ccc(cc2)C[C@@H](C(=O)N[C@H](CCc2ccccc2)C(=O)O)NC(=O)[C@H](Cc2c[nH]c3ccccc23)NC(=O)[C@@H](Cc2ccc(-c3ccccc3)cc2)NC(=O)[C@H](Cc2ccncc2)N1 | 4.52 to 5.00
* O=C(O)CN(Cc1ccccc1)C(=O)[C@@H]1Cc2ccc(cc2)OCC(=O)N[C@H](Cc2cccs2)C(=O)N[C@@H](Cc2ccc(-c3ccccc3)cc2)C(=O)N[C@H](CCc2ccccc2)C(=O)N1 | > 5.00
* O=C1COc2ccc(cc2)C[C@@H](C(=O)NCS(=O)(=O)O)NC(=O)[C@H](CCc2ccccc2)NC(=O)[C@@H](Cc2ccc(-c3ccccc3)cc2)NC(=O)[C@H](Cc2cccs2)N1 | > 5.00
* O=C1COc2ccc(cc2)C[C@@H](C(=O)NC2(C(=O)O)CC2)NC(=O)[C@H](Cc2ccccc2)NC(=O)[C@H](Cc2ccc(-c3ccccc3)cc2)NC(=O)[C@H](Cc2cccs2)N1 | > 5.00
* O=C1COc2ccc(cc2)C[C@@H](C(=O)O)NC(=O)[C@H](CCc2ccccc2)NC(=O)[C@@H](Cc2ccc(-c3ccncc3)cc2)NC(=O)[C@H](Cc2cccs2)N1 | > 5.00
* O=C1COc2ccc(cc2)C[C@@H](C(=O)N[C@@H](Cc2ccccc2)c2nnn[nH]2)NC(=O)[C@H](Cc2ccccc2)NC(=O)[C@@H](Cc2ccc(-c3ccccc3)cc2)NC(=O)[C@H](Cc2cccs2)N1 | > 5.00
* O=C1COc2ccc(cc2)C[C@@H](C(=O)N[C@@H](Cc2ccccc2)C(=O)O)NC(=O)[C@@H](CCc2ccccc2)NC(=O)[C@H](Cc2ccc(-c3ccccc3)cc2)NC(=O)[C@@H](CCc2ccccc2)N1 | > 5.00
* O=C1COc2ccc(cc2)C[C@@H](C(=O)N[C@@H](CCc2ccccc2)C(=O)O)NC(=O)[C@H](Cc2ccccc2)NC(=O)[C@@H](Cc2ccc(-c3ccccc3)cc2)NC(=O)[C@H](Cc2cccs2)N1 | > 5.00
* O=C1COc2ccc(cc2)C[C@@H](C(=O)NCCO)NC(=O)[C@H](Cc2ccccc2)NC(=O)[C@@H](Cc2ccc(-c3ccccc3)cc2)NC(=O)[C@H](Cc2cccs2)N1 | > 5.00
